Listed binders paired with reported glycan array binding signal (z-score)
- targetOrTestSystem: Gal(b1-3)GlcNAc(b1-2)[Gal(b1-3)GlcNAc(b1-6)]Man(a1-6)[Gal(b1-3)GlcNAc(b1-2)Man(a1-3)]Man(b1-4)GlcNAc(b1-4)GlcNAc
- assayOverview: glycan array binding signal (z-score within array); higher = stronger binding
- experimentalParameters: glycan notation: IUPAC condensed, linker removed
This excerpt belongs to a sample that is enriched for the strongest signals.

binder: ERGIC1-EDTA (Homo sapiens), Q969X5 (protein) MKFLVNVALVFMVVYISYIYAAAHMHHHHHHDYDIPTTENLYFQGSEVVNELYVDDPDKDSGGKIDVSLNISLPNLHCELVGLDIQDEMGRHEVGHIDNSMKIPLNNGAGCRFEGQFSINKVPGNFHVSTHSATAQPQNPDMTHVIHKLSFGDTLQVQNIHGAFNALGGADRLTSNPLASHDYILKIVPTVYEDKSGKQRYSYQYTVANKEYVAYSHTGRIIPAIWFRYDLSPITVKYTE
glycan array binding signal (z-score): 3.15
//
binder: GSL-I-B4 (Griffonia simplicifolia) (protein) NFWSDVEDSIIFQGDANTTAGTLQLCKTNQYGTPLQWSAGRALYSDPVQLWDNKTESVASFYTEFTFFLKITGNGPADGLAFFLAPPDSDVKDAGEYLGLFNKSTATQPSKNQVVAVEFDTWTNPNFPEPSYRHIGINVNSIVSVATKRWEDSDIFSGKIATARISYDGSAEILTVVLSYPDGSDYILSHSVDMRQNLPESVRVGISASTGNNQFLTVYILSWRFSSNLQSTSVKAAMEPEITRTVV
glycan array binding signal (z-score): -0.138
//
binder: Sebin2 (Coprinopsis cinerea), A8PE78 (protein) MTTPFYAYCHNVQDDNTWRLGLVFANRSTADEWWRAISEATSSIPITKSITRVTPQYYTHDIRVWNMYNFFVDGNIKSISDKFRGRLFITLEYDRSGRGVSVFPPLHIVDHVSGNWYYIRSKTAPHLFWFYDETRNAIYASKEKRTRFKVSIRNPSPQTPKDAIMINSDDVVIHIKESLYVGVDSYLGHIIPTRAYRTFKFGELEGGAIAGIEVAENAEERCSSTFDGASLYFVGPDSSSPGEPWELV
glycan array binding signal (z-score): 1.02
//
binder: CAA (Caragana arborescens) (protein) VAVEFDTFDNPDWDPRTKHIGIDVNSIRSNKTTQWGFWNRQVADVDISYEASSKTLNVSLYYPGESYIVTDVVDLKDILPEWVRIGF
glycan array binding signal (z-score): 5.63
//
binder: RobpsCRA (Robinia pseudoacacia) (protein) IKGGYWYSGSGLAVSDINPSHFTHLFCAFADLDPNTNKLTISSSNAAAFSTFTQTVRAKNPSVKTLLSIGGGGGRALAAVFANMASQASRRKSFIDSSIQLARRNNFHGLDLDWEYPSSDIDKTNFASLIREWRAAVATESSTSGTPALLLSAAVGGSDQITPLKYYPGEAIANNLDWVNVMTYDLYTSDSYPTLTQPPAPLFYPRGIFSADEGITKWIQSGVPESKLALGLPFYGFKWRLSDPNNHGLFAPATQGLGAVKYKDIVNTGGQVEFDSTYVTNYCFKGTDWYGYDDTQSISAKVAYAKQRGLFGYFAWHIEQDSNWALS
glycan array binding signal (z-score): -0.739
//
binder: CGL (Crenomytilus grayanus), H2FH31 (protein) MTTFLIKHKASGKFLHPYGGSSNPANNTKLVLHSDIHERMYFQFDVVDERWGYIKHVASGKIVHPYGGQANPPNETNMVLHQDRHDRALFAMDFFNDNIMHKGGKYIHPKGGSPNPPNNTETVIHGDKHAAMEFIFVSPKNKDKRVLVYA
glycan array binding signal (z-score): 1.87
//
binder: Tap1 (Sordaria macrospora), Q50IV4 (protein) MSHHHHHHHHYTLHLRLINDTSDTLTLVEQTSWWGKNTIWSQVRSTGVHVLSMAASGSSGMLRFQTSKGDFFAVAVGVHNYKRWCDVLVDTADEAPLTKLHPKYYDDKDAKYQALWAQASEFEAKSKSGKTVRIKFYQADGNVLRATVEYL
glycan array binding signal (z-score): -0.179
//
binder: CFEM-PPm (Pichia pastoris), F2QPV1 (protein) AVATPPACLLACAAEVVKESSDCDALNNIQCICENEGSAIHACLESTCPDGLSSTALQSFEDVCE
glycan array binding signal (z-score): -0.203
//
binder: FGFR2-Fc (protein) MVNVTDAISSGDDEDDTDGAEDFVSENSNNKRAPYWTNTEKMEKRLHAVPAANTVKFRCPAGGNPMPTMRWLKNGKEFKQEHRIGGYKVRNQHWSLIMESVVPSDKGNYTCVVENEYGSINHTYHLDVVERSPHRPILQAGLPANASTVVGGDVEFVCKVYSDAQPHIQWIKHVEKNGSKYGPDGLPYLKVLKHSGINSSNAEVLALFNVTEADAGEYICKVSNYIGQANQSAWLTVLPKQQAPGREKEITASPDYLETRPLEQKLISEEDLAANDILDYKDDDDKV
glycan array binding signal (z-score): 0.991
